These measurements were taken from patent US20230287125A1.

Measured kon, listed per entry for reference.
biological target: T1, human PD-L1-his tag protein (human, UniProt Q9NZQ7 19-238); assay: SPR (Biacore), affinity ranking, PDL1-His
T1 construct: also called human PD-L1-His protein; recombinant PD-L1 protein; not shown: his tag
T1 sequence (Q9NZQ7 19-238 limits assumed): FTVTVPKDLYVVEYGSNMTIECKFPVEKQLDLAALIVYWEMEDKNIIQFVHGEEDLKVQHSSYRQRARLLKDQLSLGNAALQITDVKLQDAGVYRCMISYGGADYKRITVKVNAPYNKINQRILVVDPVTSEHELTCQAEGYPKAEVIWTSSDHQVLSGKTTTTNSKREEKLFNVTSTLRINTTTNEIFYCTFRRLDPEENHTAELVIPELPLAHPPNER
Express your answer in M⁻¹ s⁻¹, writing the number without its unit.

Here are 6 binders together with their reported answers.
{"BINDER": "Hu67F3G7-5 (antibody, V domains shown, humanized) VH: EVQLVQSGAEVKKPGASVKVSCKASGYIFTDFWVSWVRQAPGKGLEWIGEIYPNSGVSRYNEKFKGRVTMTVDKSISTAYMELSRLRSDDTAVYYCTKYFGYTYWFGYWGQGTLVTVSS VL: DIQMTQSPSSLSASVGDRVTITCRASKSVSTYMHWYQQKPGKAPKLLIYSASHLESGVPSRFSGSGSGTDFTLTISSLQPEDFATYYCQQSNELPVTFGGGTKVEIK", "OBSERVATION_TYPE": "kon", "ASSAY_RESULT": "2.62e+06"}
{"BINDER": "Hu89C10H8-12 (antibody, V domains shown, humanized) VH: EVQLVESGGGLVKPGGSLRLSCAASGFTFSNYWMTWIRQAPGKGLEWVASITNTGSSTFYPDSVKGRFTISRDNAKSSLYLQMNSLRAEDTAVYYCTRDTTIAPFDYWGQGTMVTVSS VL: DIQMTQSPSSLSASVGDRVTITCKASQNLNEYLNWYQQKPGKAPKRLIYKTNTLQAGIPSRFSGSGSGIDYTLTISSLQPEDFATYYCSQYNSGNTFGQGTKLEIK", "OBSERVATION_TYPE": "kon", "ASSAY_RESULT": 727000}
{"BINDER": "Hu67F3G7-11 (antibody, V domains shown, humanized) VH: EVQLVQSGAEVKKPGASVKVSCKASGYTFTDFWVSWVRQAPGQGLEWMGEIYPNSGVSRYNEKFKGRVTMTVDKSISTAYMELSRLRSDDTAVYYCARYFGYTYWFGYWGQGTLVTVSS VL: DTVLTQSPSSLSASVGDRVTITCRASKSVSTYMHWYQQKPGKQPKLLIYSASHLESGVPSRFSGSGSGTDFTLTISSLQPEDFATYYCQQSNELPVTFGGGTKVEIK", "OBSERVATION_TYPE": "kon", "ASSAY_RESULT": "5.11e+06"}
{"BINDER": "Hu67F3G7-12 (antibody, V domains shown, humanized) VH: EVQLVQSGAEVKKPGASVKVSCKASGYTFTDFWVSWVRQAPGQGLEWMGEIYPNSGVSRYNEKFKGRVTMTVDKSISTAYMELSRLRSDDTAVYYCTKYFGYTYWFGYWGQGTLVTVSS VL: DTVLTQSPSSLSASVGDRVTITCRASKSVSTYMHWYQQKPGKQPKLLIYSASHLESGVPSRFSGSGSGTDFTLTISSLQPEDFATYYCQQSNELPVTFGGGTKVEIK", "OBSERVATION_TYPE": "kon", "ASSAY_RESULT": "2.56e+06"}
{"BINDER": "Hu67F3G7-18 (antibody, V domains shown, humanized) VH: EVQLVQSGAEVKKPGASVKVSCKASGYIFTDFWVSWVRQAPGQGLEWIGEIYPNSGVSRYNEKFKGRVTMTVDKSISTAYMELSRLRSDDTAVYYCTKYFGYTYWFGYWGQGTLVTVSS VL: DTVLTQSPSLSASVGDRVTITCRASKSVSTYMHWYQQKPGKQPKLLIYSASHLESGVPSRFSGSGSGTDFTLTISSLQPEDFATYYCQQSNELPVTFGGGTKVEIK", "OBSERVATION_TYPE": "kon", "ASSAY_RESULT": "2.88e+06"}
{"BINDER": "Hu89C10H8-7 (antibody, V domains shown, humanized) VH: EVQLVESGGGLVKPGGSLRLSCAASGFTFSNYWMTWIRQAPGKGLEWVASITNTGSSTFYPDSVKGRFTISRDNAKNSLYLQMNSLRAEDTAVYYCTRDTTIAPFDYWGQGTMVTVSS VL: DIQMTQSPSSLSASVGDRVTITCKASQNLNEYLNWYQQKPGKAPKRLIYKTNTLQAGIPSRFSGSGSGTDYTLTISSLQPEDFATYYCSQYNSGNTFGQGTKLEIK", "OBSERVATION_TYPE": "kon", "ASSAY_RESULT": 615000}

Name the reported kon value associated with the binder Hu89C10H8-10 (antibody, V domains shown, humanized) VH: EVQLVESGGGLVKPGGSLRLSCAASGFTFSNYWMTWVRQAPGKGLEWVASITNTGSSTFYPDSVKGRFTISRDNAKNSLYLQMNSLRAEDTAVYYCTRDTTIAPFDYWGQGTMVTVSS VL: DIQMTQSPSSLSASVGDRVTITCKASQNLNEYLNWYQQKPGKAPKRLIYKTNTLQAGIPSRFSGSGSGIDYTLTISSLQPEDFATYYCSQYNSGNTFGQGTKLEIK
595000

Name the reported kon value associated with the binder Hu67F3G7-7 (antibody, V domains shown, humanized) VH: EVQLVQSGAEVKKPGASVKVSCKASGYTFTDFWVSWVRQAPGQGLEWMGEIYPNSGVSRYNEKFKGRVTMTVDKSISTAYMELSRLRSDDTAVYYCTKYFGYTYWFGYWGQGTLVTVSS VL: DTVLTQSPSSLSASVGDRVTITCRASKSVSTYMHWYQQKPGKAPKLLIYSASHLESGVPSRFSGSGSGTDFTLTISSLQPEDFATYYCQQSNELPVTFGGGTKVEIK
2.69e+06

Name the reported kon value associated with the binder Hu67F3G7-13 (antibody, V domains shown, humanized) VH: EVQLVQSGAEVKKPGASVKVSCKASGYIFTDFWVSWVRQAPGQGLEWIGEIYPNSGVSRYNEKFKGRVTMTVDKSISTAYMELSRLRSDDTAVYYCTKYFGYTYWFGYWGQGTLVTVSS VL: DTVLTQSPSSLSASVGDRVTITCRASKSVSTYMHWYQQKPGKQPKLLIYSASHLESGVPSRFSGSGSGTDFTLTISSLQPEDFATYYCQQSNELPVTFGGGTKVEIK
2.8e+06

Name the reported kon value associated with the binder Hu89C10H8-9 (antibody, V domains shown, humanized) VH: EVQLVESGGGLVKPGGSLRLSCAASGFTFSNYWMTWVRQAPGKGLEWVASITNTGSSTFYPDSVKGRFTISRDNAKNSLYLQMNSLRAEDTAVYYCARDTTIAPFDYWGQGTMVTVSS VL: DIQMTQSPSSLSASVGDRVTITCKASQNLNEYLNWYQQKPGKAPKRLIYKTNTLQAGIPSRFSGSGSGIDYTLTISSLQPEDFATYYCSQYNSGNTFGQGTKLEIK
671000
